experiment: pKa determination by spectrophotometric titration; assay type: physicochemical; details: DMSO/water solution (molar ratio 0.2:1) with 0.1 M KCl, 25 °C, DMSO:H2O molar ratio 0.2:1, read-out: pKa (4-oxo functional group)
reported-endpoint: pKa

INPUT: Which pKa is reported for this compound? COc1ccc(C(=O)/C=C/c2cc(=O)c(O)c[nH]2)cc1OC [Compound 1n]
OUTPUT: 3.3

---

target: monophenolase activity of mushroom tyrosinase (Agaricus bisporus, UniProt C7FF04); assay: Monophenolase inhibition assay (L-tyrosine substrate, dopachrome absorbance at 475 nm); conditions: pH 6.8, read-out: Inhibition (%) on monophenolase activity
Sequence (G1K3P4 entry or part of it): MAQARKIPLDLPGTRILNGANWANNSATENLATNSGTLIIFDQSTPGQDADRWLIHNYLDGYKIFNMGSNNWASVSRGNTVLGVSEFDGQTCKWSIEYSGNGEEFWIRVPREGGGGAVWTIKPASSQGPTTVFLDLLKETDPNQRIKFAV
Sequence (C7FF04 1-392): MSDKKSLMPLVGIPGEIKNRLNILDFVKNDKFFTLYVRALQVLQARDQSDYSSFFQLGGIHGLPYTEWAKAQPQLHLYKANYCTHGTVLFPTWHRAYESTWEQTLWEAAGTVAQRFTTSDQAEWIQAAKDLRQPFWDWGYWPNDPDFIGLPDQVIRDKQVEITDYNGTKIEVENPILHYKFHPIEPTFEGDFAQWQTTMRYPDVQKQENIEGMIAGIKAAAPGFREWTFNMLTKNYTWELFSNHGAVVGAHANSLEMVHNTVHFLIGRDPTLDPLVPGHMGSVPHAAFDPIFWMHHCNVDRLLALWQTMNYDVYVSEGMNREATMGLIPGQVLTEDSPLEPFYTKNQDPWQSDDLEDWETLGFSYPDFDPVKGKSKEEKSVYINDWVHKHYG
Provide the reported inhibition at 50 µM of each item.
Answers are plain numbers, in %.

O=C(/C=C/c1cc(=O)c(O)c[nH]1)c1ccccc1 [Compound 1m] :: 66.7
Cn1cc(O)c(=O)cc1/C=C/C(=O)c1ccccc1 [Compound 1i] :: 72.8
COc1ccc(C(=O)/C=C/c2cc(=O)c(O)cn2C)c(O)c1 [Compound 1b] :: 66.7
CCn1cc(O)c(=O)cc1/C=C/C(=O)c1ccc(F)cc1 [Compound 1h] :: 57.8

Respectfully, I request inhibition at 50 µM for each entry included below.
1. COc1ccc(C(=O)/C=C/c2cc(=O)c(O)co2)c(OC)c1 [Compound 1c]
2. CCn1cc(O)c(=O)cc1/C=C/C(=O)c1ccc(OC)cc1O [Compound 1g]
3. COc1ccc(C(=O)/C=C/c2cc(=O)c(O)c[nH]2)c(O)c1 [Compound 1o]
4. CCCCn1cc(O)c(=O)cc1/C=C/C(=O)c1ccc(OC)cc1O [Compound 1k]
5. CCCCn1cc(O)c(=O)cc1/C=C/C(=O)c1ccc(O)c(O)c1 [Compound 1j]
6. CCCCn1cc(O)c(=O)cc1/C=C/C(=O)c1ccc(F)cc1 [Compound 1l]

OUTPUT:
1. 50.3
2. 71.4
3. 63.3
4. 64.6
5. 69.4
6. 50.3

---

biological target: UniProt:C7FF04; experiment: Monophenolase inhibition assay (L-tyrosine substrate, dopachrome absorbance at 475 nm); settings: pH 6.8, read-out: Inhibition (%) on monophenolase activity
Provide the reported inhibition at 50 µM of each item.
The reply must contain the numeric value and, after it, the unit.

Example entries begin here.
CCn1cc(O)c(=O)cc1/C=C/C(=O)c1ccccc1 [Compound 1e] :: 63.3%
Cn1cc(O)c(=O)cc1/C=C/C(=O)c1ccc(F)cc1 [Compound 1a] :: 85.3%

Respectfully, I request inhibition at 50 µM for each entry included below.
1. O=C(/C=C/c1cc(=O)c(O)c[nH]1)c1ccc(F)cc1 [Compound 1d]
2. COc1ccc(C(=O)/C=C/c2cc(=O)c(O)c[nH]2)cc1OC [Compound 1n]
3. CCn1cc(O)c(=O)cc1/C=C/C(=O)c1ccc(O)c(O)c1 [Compound 1f]

OUTPUT:
1. 89.5%
2. 87.6%
3. 78.8%

Data provenance is paper PMC7470021.
